- protocol summary: chemical genetic growth profiling, strain panel (AID 1159580);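 further: tested at 20 µM; growth read once vehicle control cultures reached saturation at 30 °C; 1 = growth at the plate median or of vehicle wells; lower values mean less growth of the strain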
- condition notes: S. cerevisiae deletion strains, growth OD, locus YMR231W, strain pep5, hits give low values
About 2,000 (36%) of roughly 5,500 compounds were called active. Inconclusive results (about 18%) are left out. Some of the results follow.
Measured normalized growth of individual entries
Just the number, please, no unit attached.

Recorded results for 5 molecules are shown here.
molecule | normalized growth
CC(=O)O[C@@H]1CC2C(C)(C)[C@H](O)CC[C@]2(C)C2CC[C@@]3(C)[C@H](c4ccoc4)OC(=O)C4OC43[C@@]21C (some centres not stated) | 1.01
CC1C/C=C/C=C/C=C/C=C/C(O[C@@H]2O[C@H](C)[C@@H](O)[C@H](N)[C@@H]2O)CC2OC(O)(CC(O)CC3OC3/C=C/C(=O)O1)CC(O)C2C(=O)O (some centres not stated) | 0.997
CC(=O)O[C@@H]1CC2C(C)(C)[C@H](O)C=C[C@]2(C)C2CC[C@@]3(C)[C@H](c4ccoc4)OC(=O)C4OC43[C@@]21C (some centres not stated) | 1.02
CC(=O)O[C@H]1C[C@@H](OC(C)=O)C(C)(C)C2C[C@@H](OC(C)=O)[C@]3(C)C(CC[C@@]4(C)[C@H](c5ccoc5)OC(=O)[C@H]5O[C@]543)[C@]21C (some centres not stated) | 0.981
CC(C)=CC1C(C(=O)OCc2cccc(Oc3ccccc3)c2)C1(C)C (configuration not stated) | 1.01

[in] Form field: reported normalized growth of `Clc1ccccc1CN1CCc2sccc2C1`
[out] 1.01

[in] Form field: reported normalized growth of CC(=O)O[C@@H]1CC2C(C)(C)[C@@H](O)CC[C@]2(C)C2CC[C@@]3(C)[C@H](c4ccoc4)OC(=O)[C@H]4O[C@]43[C@@]21C (some centres not stated)
[out] 0.959

----------
- protocol summary: chemical genetic growth profiling, strain panel (AID 1159580)
- condition notes: S. cerevisiae deletion strains, growth OD, locus YHR094C, strain hxt1, hits give low values
Hit rate of the full screen: of about 5,500 compounds, about 2,000 (36%) were called active. Another 18% or so got no clear call; they are omitted. The list shows a part of the results.
Measured normalized growth of individual entries
Just the number, please, no unit attached.

Recorded results for 3 compounds are shown here.
compound | normalized growth
CC(=O)O[C@@H]1CC2C(C)(C)[C@H](O)CC[C@]2(C)C2CC[C@@]3(C)[C@H](c4ccoc4)OC(=O)C4OC43[C@@]21C (stereo partly specified) | 0.989
COC1C=CC23c4cc5c(cc4CN(CC2O)[C@@H]3C1)OCO5 (stereo partly specified) | 0.992
CC(=O)OC1CC(OC(C)=O)C2(C)C(CC(OC(C)=O)C3(C)C2CCC2(C)C(c4ccoc4)OC(=O)C4OC423)C1(C)C (stereo unspecified) | 0.984

[in] Form field: reported normalized growth of CC(=O)O[C@@H]1CC2C(C)(C)C(=O)C3OC3[C@]2(C)C2CC[C@@]3(C)[C@H](c4ccoc4)OC(=O)C4OC43[C@@]21C (stereo partly specified)
[out] 1

[in] Form field: reported normalized growth of CC(=O)O[C@H]1CC[C@@]2(C)C(C[C@@H](OC(C)=O)[C@]3(C)C2CC[C@@]2(C)[C@H](c4ccoc4)OC(=O)[C@H]4O[C@]423)C1(C)C (stereo partly specified)
[out] 1.01

[in] Form field: reported normalized growth of `Cc1cc(CC(=O)O)n(C)c1C(=O)c1ccc(Cl)cc1`
[out] 1

[in] Form field: reported normalized growth of `CC(C)c1nc(N(C)S(C)(=O)=O)nc(-c2ccc(F)cc2)c1/C=C/[C@@H](O)C[C@@H](O)CC(=O)O`
[out] 1.01

[in] Form field: reported normalized growth of `Cc1ccc(C(=O)c2ccc(CC(=O)O)n2C)cc1`
[out] 0.973

----------
- protocol summary: chemical genetic growth profiling, strain panel (AID 1159580)
- condition notes: S. cerevisiae deletion strains, growth OD, locus YKR026C, strain gcn3, hits give low values
In all, about 5,500 compounds went through this assay and about 2,000 (36%) were called active. Inconclusive results (about 18%) are left out. The list shows a part of the results.
Measured normalized growth of individual entries
Just the number, please, no unit attached.

molecule | meas value
Fc1ccc([C@@H]2CCNC[C@H]2COc2ccc3c(c2)OCO3)cc1 | 1.01
NC1(C(=O)O)CCCC1 | 1.02
CC(C)/C(O)=C1/C(=O)O[C@@H](c2ccoc2)[C@]2(C)C(O)[C@@H](O)[C@@]34OC5(C)OC67CC(C)(C(O)[C@]6(O)[C@@H](O)[C@]3(O5)C12)[C@H](CC(=O)O)[C@]74C (stereo not given in full) | 0.994
Clc1ccc(CSC(Cn2ccnc2)c2ccc(Cl)cc2Cl)cc1 (stereo not given) | 0.0654

Turning to the following molecule.
[in] Form field: reported normalized growth of O=C(O)CCC1NCC2CC1CN1CCCCC21 (stereo not given)
[out] 0.982

----------
- protocol summary: chemical genetic growth profiling, strain panel (AID 1159580);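 further: tested at 20 µM; growth read once vehicle control cultures reached saturation at 30 °C; 1 = growth at the plate median or of vehicle wells; lower values mean less growth of the strain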
- condition notes: S. cerevisiae deletion strains, growth OD, locus YMR058W, strain fet3, hits give low values
The whole screen tested about 5,500 compounds, of which about 2,000 (36%) were called active. Another 18% or so got no clear call; they are omitted. The list shows a part of the results.
Measured normalized growth of individual entries

compound | normalized growth
NC(=O)NC1NC(=O)NC1=O (configuration not stated) | 1.01 (inactive)
O=C(O)[C@@H](S)[C@@H](S)C(=O)O | 0.832 (active)
CN1CCC[C@@H]1CCO[C@](C)(c1ccccc1)c1ccc(Cl)cc1 | 0.953 (inactive)
COC[C@]12CN(C=O)C3[C@@H]4[C@H](OC)C1[C@]3(C1CC3(O)C(OC)C(O)C4(OC(C)=O)C1C3OC(=O)c1ccccc1)[C@@H](OC)C[C@H]2O (some centres not stated) | 1.01 (inactive)
COC1C=CC23c4cc5c(cc4CN(CC2O)[C@@H]3C1)OCO5 (some centres not stated) | 0.983 (inactive)
O=C(O)C(O)C(O)C(=O)O (configuration not stated) | 1.01 (inactive)

Turning to the following compound.
[in] Form field: reported normalized growth of `CCCn1c(=O)c2[nH]c(C3CCCC3)nc2n(CCC)c1=O`
[out] 1 (inactive)

----------
- protocol summary: chemical genetic growth profiling, strain panel (AID 1159580);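 further: tested at 20 µM; growth read once vehicle control cultures reached saturation at 30 °C; 1 = growth at the plate median or of vehicle wells; lower values mean less growth of the strain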
- condition notes: S. cerevisiae deletion strains, growth OD, locus YGL173C, strain kem1, hits give low values
Hit rate of the full screen: of about 5,500 compounds, about 2,000 (36%) were called active. Another 18% or so got no clear call; they are omitted. The list shows a part of the results.
Measured normalized growth of individual entries
Just the number, please, no unit attached.

Recorded results for 5 compounds are shown here.
compound | measured property | meas value
CC1(C)C(=O)[C@@H]2O[C@@H]2[C@@]2(C)C1C[C@@H](O)[C@]1(C)C2CC[C@@]2(C)[C@H](c3ccoc3)OC(=O)C3OC321 (stereo partly drawn) | normalized growth | 1
CCCCCCCCCCCCCC(=O)OC1C(C)C2(O)C(C=C(CO)CC3(O)C(=O)C(C)=CC32)C2C(C)(C)C12OC(C)=O (stereo not drawn) | normalized growth | 0.984
O=C(O)[C@@H](S)[C@@H](S)C(=O)O | normalized growth | 0.892
CC(=O)O[C@H]1C[C@@H](OC(C)=O)C(C)(C)C2C[C@@H](O)[C@]3(C)C(CC[C@@]4(C)[C@H](c5ccoc5)OC(=O)[C@H]5O[C@]543)[C@]21C (stereo partly drawn) | normalized growth | 0.962
NC(N)=NCCCCN=C(N)N | normalized growth | 0.995

Turning to the following compound.
[in] Form field: reported normalized growth of `N[C@@H](C(=O)O)[C@@H](O)[C@H](O)[C@H](O)CO`
[out] 1.04

----------
Measured normalized growth of individual entries
- protocol summary: chemical genetic growth profiling, strain panel (AID 1159580);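 further: tested at 20 µM; growth read once vehicle control cultures reached saturation at 30 °C; 1 = growth at the plate median or of vehicle wells; lower values mean less growth of the strain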
- condition notes: S. cerevisiae deletion strains, growth OD, locus YNL233W, strain BNI4, hits give low values
In all, about 5,500 compounds went through this assay and about 2,000 (36%) were called active. Inconclusive results (about 18%) are left out. The list shows a part of the results.
Just the number, please, no unit attached.

[in] Form field: reported normalized growth of O=C(O)C1CCCNC1 (stereo unspecified)
[out] 1.01

[in] Form field: reported normalized growth of CC(C)/C(O)=C1/C(=O)O[C@@H](c2ccoc2)[C@]2(C)C(O)[C@@H](O)[C@@]34OC5(C)OC67CC(C)(C(O)[C@]6(O)[C@@H](O)[C@]3(O5)C12)[C@H](CC(=O)O)[C@]74C (stereo partly specified)
[out] 0.981

[in] Form field: reported normalized growth of CC(=O)O[C@@H]1CC2C(C)(C)[C@@H](O)CC[C@]2(C)C2CC[C@@]3(C)[C@H](c4ccoc4)OC(=O)[C@H]4O[C@]43[C@@]21C (stereo partly specified)
[out] 1.01

[in] Form field: reported normalized growth of CC1(C)C(=O)[C@@H]2O[C@@H]2[C@@]2(C)C1C[C@@H](O)[C@]1(C)C2CC[C@@]2(C)[C@H](c3ccoc3)OC(=O)C3OC321 (stereo partly specified)
[out] 0.99

[in] Form field: reported normalized growth of CC(=O)O[C@H]1CC[C@@]2(C)C(C[C@@H](OC(C)=O)[C@]3(C)C2CC[C@@]2(C)[C@H](c4ccoc4)OC(=O)[C@H]4O[C@]423)C1(C)C (stereo partly specified)
[out] 1.05

Cited source for all entries: PubChem BioAssay AID1159580
